Data origin: patent US8119640B2

# Test system: Hh pathway
# Experimental details: Shh-LIGHT2 assay for Hh pathway activation (Gli-dependent firefly luciferase)
# Format: cell-based
# Measurement setup: Shh Light2; stimulated with Shh-N-conditioned medium; read-out: IC50 (uM) Shh/Shh-LIGHT2 cells
Recorded IC50 by entry
Answer format: numeric, µM implied, no suffix.

Some entries whose results are on file:
>>> reported_value("COc1ccc(OC)c2c1cc1n2CC(C)(C(=O)NC2CCCCCCC2)N(CCN(C)C)C1=O (centres unmarked) [Compound 17]")
2
>>> reported_value("CN1CCN(C2Cc3ccccc3Sc3ccccc32)CC1 (centres unmarked) [Compound 13]")
1.4
>>> reported_value("O=S(=O)(Nc1cc(Cl)c(Cl)cc1Cl)c1ccc(F)cc1 [Compound 10]")
2.2
>>> reported_value("Cc1cc(/C=c2\\sc3nc4ccccc4n3c2=O)c(C)n1C(C)C [Compound 3]")
0.5
>>> reported_value("O=C(Nc1nnc(S(=O)(=O)N2CCCCC2)s1)c1cccc(Br)c1 [Compound 15]")
4.5
>>> reported_value("CCOC(=O)c1cc2c(=O)n3ccccc3nc2n(C(C)C)c1=NC(=O)c1cc(OC)cc(OC)c1 [Compound 6]")
1
>>> reported_value("CC(C)(C)N(CCNS(=O)(=O)c1ccc(-c2cc(C(F)(F)F)no2)s1)Cc1ccco1 [Compound 12]")
2
>>> reported_value("CCCCNC(=N)C(C)c1ccc(CC(C)C)cc1 (centres unmarked) [Compound 2]")
1.6
>>> reported_value("OCCNc1nc(N2CCN(c3ccccc3)CC2)nc2ccccc12 [Compound 11]")
2
>>> reported_value("CCN1CCCC1CNC(=O)C1CCN(c2nc3c(C)cc(C)cc3s2)CC1 (centres unmarked) [Compound 7]")
1.6

Record lookup: for Hh pathway, what IC50 belongs to CCC(C)NS(=O)(=O)c1ccc(Cc2ccc(S(=O)(=O)NC(C)CC)cc2)cc1 (centres unmarked) [Compound 5] ?
1

Next record, please: N#CC(C(=O)c1ccc(Cl)cc1Cl)=C1NC(=O)c2ccccc2N1 [Compound 18]
7.5

Next record, please: CCOC(=O)c1cn(-c2ccccc2)nc1-c1ccc(OC)c(OC)c1 [Compound 9]
5

Next record, please: COCCOC(=O)C1=C(C)NC2=C(C(=O)CC(c3ccccc3OC)C2)C1c1cccc(O)c1 (mixture of isomers) [Compound 8]
1.3

Next record, please: N#Cc1cc2c(nc1SCC(=O)Nc1nc3ccccc3s1)CCC2 [Compound 1]
0.25

Next record, please: CCOc1ccc(CCNc2cnnc3c(Cl)cccc23)cc1OCC [Compound 16]
4.5

Next record, please: O=C(Nc1cccc2ccccc12)OC[C@@H]1CCCN2CCCC[C@H]12 [Compound 4]
1.8
